Test system: 7G8
Assay: qHTS profiling for inhibitors of Plasmodium falciparum proliferation (AID 504749); also: nearly all actives have a fitted effect of over 60% in size
Settings: P. falciparum in erythrocytes, SYBR Green DNA, 72 h; series mostly up to 28.7 µM
Results filed as inconclusive are left out. The source made the active and inactive calls. Calls follow the shape of the dose curve; as a rule, active = well fitted inhibition curve with a large enough effect; inconclusive = small, poorly fitted or top-dose-only effect; inactive = flat fitted curve, though single readings scatter.
// allowed return values: class 1 = active, class 0 = inactive

Use these answered entries as a reference point.
compound	cat
O=C1O[C@H]([C@@H](O)CO)C(O)=C1O	class 0
Nc1ccc(S(=O)(=O)Nc2nccs2)cc1	class 0
CCN(CC)CCNC(C(=O)OCCC(C)C)c1ccccc1 (stereo unspecified)	class 1
NCC(=O)CCC(=O)O	class 0
N[C@@H](CSCCCO)C(=O)O	class 0

Attention now turns to another entry.
Outcome? `Nc1ncnc2c1ncn2[C@@H]1O[C@H](CO)[C@@H](O)[C@H]1O`
class 0

====

Assay: qHTS of pediatric cancer cell lines to identify multiple opportunities for drug repurposing: Primary screen for SK-N-MC cells (AID 1347093)
Conditions: SK-N-MC viability, CellTiter-Glo luminescence, 48 h; series mostly up to 46 µM
Results filed as inconclusive are left out. Active and inactive are the calls of the source. Calls follow the shape of the dose curve; as a rule, active = well fitted cell-killing curve with a large enough effect; inconclusive = small, poorly fitted or top-dose-only effect; inactive = no such curve, though single readings can be large or run the other way.
Lab note: assign the record to one of active, inactive

For this compound, state the assay outcome: `C[C@@H]1CN(c2c(F)c(F)c3c(=O)c(C(=O)O)cn(C4CC4)c3c2F)C[C@H](C)N1`
inactive

Call for entry NC1[C@H]2CN(c3nc4c(cc3F)c(=O)c(C(=O)O)cn4-c3ccc(F)cc3F)C[C@@H]12 (stereo not given in full) :
inactive

What did the test return for CC(C)(C)C(=O)C(Oc1ccc(Cl)cc1)n1ccnc1 (stereo not given) ?
inactive

Assay outcome for `O=C(O)c1ccccc1-c1ccc(C(F)(F)F)cc1` : what was it?
inactive

Check the results log: what was the call for `COc1cc(C)c(Cc2cnc(N)nc2N)cc1OC` ?
active

====

Tested on: PAD
Experiment: qHTS profiling for inhibitors of Plasmodium falciparum proliferation (AID 504749); also: nearly all actives have a fitted effect of over 60% in size
Conditions: P. falciparum in erythrocytes, SYBR Green DNA, 72 h; series mostly up to 28.7 µM
Inconclusive results are not listed. Active and inactive are the calls of the source. The call rests on the fitted dose curve; in most records, active means well fitted inhibition curve with a large enough effect; inconclusive means small, poorly fitted or top-dose-only effect; inactive means flat fitted curve, though single readings scatter.
The categories you may choose from are active, inactive

A selection of reference data follows.
molecule	cat
CNCCCC1c2ccccc2C=Cc2ccccc21	inactive
Nc1ccc(S(=O)(=O)Nc2nccs2)cc1	inactive
CN(C)CCN(Cc1ccccc1)c1ccccn1	inactive
CCCCCCCCCCCCCCCCCCOCC(O)CO (stereo not given)	inactive
CC(=O)c1ccc2c(c1)N(CCCN(C)C)c1ccccc1S2	inactive
CCCCCCCCCCCCOS(=O)(=O)O	inactive

Record lookup: outcome of this test for `COc1cc(C(=O)N2CCOCC2)cc(OC)c1OC` ?
inactive

Assay outcome for `O=C1O[C@H]([C@@H](O)CO)C(O)=C1O` : what was it?
inactive

Please indicate how the test categorized `N[C@@H](CSCCCO)C(=O)O` .
inactive

What call does the record list for `NC(=O)NNc1ccccc1` ?
inactive

What did this assay record as the result for `Cc1c(Cl)cccc1Nc1ccccc1C(=O)O` ?
inactive

For `O=c1cc[nH]c(=S)[nH]1` , which call appears in the assay record?
inactive

Given `C=Cc1c(C)c2cc3[nH]c(cc4nc(cc5nc(cc1[nH]2)C(C)=C5CCC(=O)O)C(CCC(=O)O)=C4C)c(C)c3C=C` , state the outcome it received in this test.
inactive

Status in this test for `O=c1[nH]c(=O)c2[nH]c(=O)[nH]c2[nH]1` ?
inactive

====

Tested on: AS120
Test: qHTS profiling for inhibitors of Plasmodium falciparum proliferation (AID 504749); also: nearly all actives have a fitted effect of over 60% in size; also: potency is read from the fitted curve at half-maximal effect
Conditions: P. falciparum in erythrocytes, SYBR Green DNA, 72 h; series mostly up to 28.7 µM
Inconclusive results are not listed. Activity calls are given as the source filed them. Calls come from the whole dose curve; as a rule, active = well fitted inhibition curve with a large enough effect; inconclusive = small, poorly fitted or top-dose-only effect; inactive = flat fitted curve, though single readings scatter.
readout kind: Potency

Before answering, review these 6 worked examples.
compound	readout kind	test value
NC(CSCC(=O)O)C(=O)O (stereo unspecified)	Potency	inactive
COc1ccc(S(=O)(=O)Nc2nnc(CC(C)C)s2)cc1	Potency	inactive
O=C1c2c(O)cccc2Cc2cccc(O)c21	Potency	inactive
COc1ccc(Cl)cc1C(=O)NCCc1ccc(S(=O)(=O)NC(=O)NC2CCCCC2)cc1	Potency	inactive
CC(O)CN(CCN(CC(C)O)CC(C)O)CC(C)O (stereo unspecified)	Potency	inactive
CCCCC(CC)COC(=O)c1ccccc1O (stereo unspecified)	Potency	inactive

get_value(item= `COc1ccc2c(c1)C(=O)N(CCc1ccc(S(=O)(=O)NC(=O)NC3CCCCC3)cc1)C(=O)C2(C)C` , readout=Potency) returns inactive

response.value for `NCCNCCNCCN` (field: Potency) = inactive

====

Tested on: CP269
Assay: qHTS profiling for inhibitors of Plasmodium falciparum proliferation (AID 504749); also: nearly all actives have a fitted effect of over 60% in size
Conditions: P. falciparum in erythrocytes, SYBR Green DNA, 72 h; series mostly up to 28.7 µM
Inconclusive results are not listed. Activity calls are given as the source filed them. Calls follow the shape of the dose curve; as a rule, active = well fitted inhibition curve with a large enough effect; inconclusive = small, poorly fitted or top-dose-only effect; inactive = flat fitted curve, though single readings scatter.
The reply should be one of these categories: 1 = active, -1 = inactive

Reference set, count: 5
molecule	cat
Cc1cc(CC(=O)O)n(C)c1C(=O)c1ccc(Cl)cc1	-1
[O-][n+]1cccc(CO)c1	-1
C[C@H]1O[C@@H](n2cc(F)c(=O)[nH]c2=O)[C@H](O)[C@@H]1O	-1
COc1ccc(S(=O)(=O)Nc2nnc(CC(C)C)s2)cc1	-1
O=S(=O)(O)NC1CCCCC1	-1

Hey, what did the test say about `CC1(C)OC(=O)NC1=O` ?
-1

Test call, this molecule: `Cc1cc(N)c2ccccc2[n+]1CCCCCCCCCC[n+]1c(C)cc(N)c2ccccc21`
1

Test call, this molecule: `COc1cc(C)c(Cc2cnc(N)nc2N)cc1OC`
-1

Would you mind telling me which call this test gave `CC1=C(/C=C/C(C)=C/C=C/C(C)=C/C(=O)O)C(C)(C)CCC1` ?
-1

Field: outcome | Entry: `COc1cc(C(=O)N2CCOCC2)cc(OC)c1OC`
-1

====

Test system: KB-3-1
Assay: Cytotoxic Profiling of Annotated Libraries Using Quantitative High-Throughput Screening (AID 1296008)
Settings: Five cell lines viability, CellTiter-Glo ATP luminescence, 48-72 h; hits give low values
Results filed as inconclusive are left out. The source made the active and inactive calls. Calls come from the whole dose curve; as a rule, active = well fitted inhibition curve with a large enough effect; inconclusive = small, poorly fitted or top-dose-only effect; inactive = flat fitted curve, though single readings scatter.
readout kind: max response

compound	test value
C[C@]12CC[C@@H]3c4ccc(O)cc4CC[C@H]3[C@@H]1CCC2=O	23.7% (inactive)
O=C(O)[C@H](O)c1ccccc1	5.08% (inactive)

The compound listed as `CNC(=O)Oc1ccc2c(c1)[C@]1(C)CCN(C)[C@@H]1N2C` has a reported max response of -5.47% (inactive)

Lab book: max response of `NC(=O)NC(=O)Cc1ccccc1` noted as 5.24% (inactive)

Lab note: `C#CCN(C)Cc1ccccc1` gave max response of -4.93% (inactive)

Looking up `C[C@@H]1CCN(C(=O)[C@H](CCCN=C(N)N)NS(=O)(=O)c2cccc3c2NC[C@H](C)C3)[C@@H](C(=O)O)C1` , I see its max response listed as 1.81% (inactive)

compound `O=C1O[C@H](CO)[C@@H](O)[C@H](O)[C@H]1O` , max response observed: 25.2% (inactive)

====

Test system: CP268
Assay: qHTS profiling for inhibitors of Plasmodium falciparum proliferation (AID 504749); also: nearly all actives have a fitted effect of over 60% in size
Settings: P. falciparum in erythrocytes, SYBR Green DNA, 72 h; series mostly up to 28.7 µM
Results filed as inconclusive are left out. Calls of active or inactive are those of the source. The call rests on the fitted dose curve; in most records, active means well fitted inhibition curve with a large enough effect; inconclusive means small, poorly fitted or top-dose-only effect; inactive means flat fitted curve, though single readings scatter.
Thanks in advance; please answer with one of these: class 1 (active), class 0 (inactive)

compound	measured on	cat
Cc1cc(CC(=O)O)n(C)c1C(=O)c1ccc(Cl)cc1	CP268	class 0
O=C(O)COc1nn(Cc2ccccc2)c2ccccc12	CP268	class 0
COc1ccc2[nH]c(S(=O)Cc3ncc(C)c(OC)c3C)nc2n1 (stereo not given)	CP268	class 0

Lab log entry: Cc1cc(C(C#N)c2ccc(Cl)cc2)c(Cl)cc1NC(=O)c1cc(I)cc(I)c1O (stereo not given) — outcome as called in the assay?
class 0

Test call for this compound, please: `Cc1cc(N)c2ccccc2[n+]1CCCCCCCCCC[n+]1c(C)cc(N)c2ccccc21`
class 1

Outcome? `CC12CCC(CC1)C(C)(C)O2`
class 0

Tell me the recorded outcome of this test for `O=C1NC(=O)[C@@]2(CCOc3ccc(F)cc32)N1` .
class 0

What outcome does the record of this test show for `CCCCCCCCCCCCOS(=O)(=O)O` ?
class 0

Test call for this compound, please: `CCN(CC)CCNC(=O)c1cc(Cl)c(N)cc1OC`
class 0

Can you look up the reported call for `O=Cc1ccccc1C=O` for me?
class 0

====

Tested on: CP237
Assay: qHTS profiling for inhibitors of Plasmodium falciparum proliferation (AID 504749); also: nearly all actives have a fitted effect of over 60% in size
Conditions: P. falciparum in erythrocytes, SYBR Green DNA, 72 h; series mostly up to 28.7 µM
Records with an inconclusive call do not appear. Activity calls are given as the source filed them. Calls follow the shape of the dose curve; as a rule, active = well fitted inhibition curve with a large enough effect; inconclusive = small, poorly fitted or top-dose-only effect; inactive = flat fitted curve, though single readings scatter.
Give your call using only these classes: t (active), f (inactive)

What is the recorded call for this compound in the test? `CC12CCC(CC1)C(C)(C)O2`
f

Tell me the assay call for `O=C1c2c(O)cccc2Cc2cccc(O)c21` please.
f

Please indicate how the test categorized `NC(=O)NNc1ccccc1` .
f

Please let me know the test result on file for CC(C)(C)NCC(O)COc1ccc(NC(=O)NC2CCCCC2)cc1 (centres undefined) .
f

Fill in: this test's call for `CN(C)CCN(Cc1ccccc1)c1ccccn1` is ___
t

Dear all, I need the recorded test outcome for `CCCCc1ncc(/C=C(\Cc2cccs2)C(=O)O)n1Cc1ccc(C(=O)O)cc1` , thank you.
f

Just curious, what result did CSc1ccc2c(c1)N(CCC1CCCCN1C)c1ccccc1S2 (centres undefined) get here?
t

Assay outcome for `NC(=O)N/N=C/c1ccc([N+](=O)[O-])o1` : what was it?
t

Look up the recorded call for `CC1(C)[C@@H]2CC[C@@]1(C)C(=O)C2` in this test.
f

# outcome recorded in this test, key = `Oc1cccc(O)c1`
f

Check the results log: what was the call for `CCCCOC(=O)c1ccc(O)cc1` ?
f

How did this test come out for `CCn1cc(C(=O)O)c(=O)c2cnc(N3CCNCC3)nc21` ?
f

Give the logged outcome of this assay for the following compound: `Cc1ccc(C(C)C)cc2c(C)ccc1-2`
f

# fetch the recorded call for `O=Cc1ccccc1C=O` here
f
